Entries and their measured Percent Effect follow.
Tested on: Leishmania donovani
experiment: Leishmania intramacrophage assay
Format: functional, organism-based
Parameters: scale not given: in the data most compounds retested in dose-response had high values
measurement_conditions: 30.3 µM; […]
Screen size: about 69,000 compounds; about 1,000 (1.4%) showed an effect of 50% or more. Shown is part of a subset that was picked to be rich in strong results.
Write the numeric value and append its unit.

compound	Percent Effect
CNS(=O)(=O)c1ccc(CN(C)Cc2nc3ccc(F)cc3[nH]2)cc1	-17.23%
CCS(=O)(=O)c1ccc(N2CCC(NC(=O)C(C)SC)CC2)cc1 (stereo unspecified)	27.86%
O=C(c1cccnc1)N1CCN(CC2CC2)c2ncccc2C1	14.27%
CCS(=O)(=O)c1ccc(N2CCC(N)CC2)cc1	63.99%
Cc1ccoc1C(=O)N1CC[C@H]2C[C@H](c3nnc(C4CC4)o3)O[C@@H]2C1	7.701%

Task item: Give the value of Percent Effect reported for the following: `Cc1cccc(CN2CCO[C@H]3[C@@H](OCc4ccncc4)CC[C@@H]32)n1.O=C(O)C(F)(F)F.O=C(O)C(F)(F)F.O=C(O)C(F)(F)F`
Reply: 12.49%

* * *

System: Leishmania donovani
experiment: Leishmania intramacrophage assay
Assay type: functional, organism-based
Design: scale not given: in the data most compounds retested in dose-response had high values
measurement_conditions: 30.3 µM; […]
About 1,000 (1.4%) of roughly 69,000 compounds showed an effect of 50% or more. This excerpt belongs to a sample that is enriched for strong results.
Entries and their measured Percent Effect follow.
State the answer as a number, implicitly in %.

molecule	unit_symbol	reported_value
O=C1CCOC[C@]2(CN(Cc3ccccc3)C[C@H]2c2ccccc2)N1	%	-10.32

Kindly consider the entry below.
Task item: Give the value of Percent Effect reported for the following: CN(CCCNC(=O)C1CCCN(C(N)=O)C1)S(C)(=O)=O (stereo unspecified)
Reply: 4.871

* * *

Tested on: Leishmania donovani
experiment: Leishmania intramacrophage assay
Format: functional, organism-based
Parameters: scale not given: in the data most compounds retested in dose-response had high values
measurement_conditions: 30.3 µM; […]
About 1,000 (1.4%) of roughly 69,000 compounds showed an effect of 50% or more. Shown is part of a subset that was picked to be rich in strong results.
reported_metric: Percent Effect (%)
State the answer as a number, implicitly in %.

Task item: Give the value of Percent Effect reported for the following: Cc1cccc(CN2CCC3(CC(C(=O)NCC(C)C)=NO3)C2)c1 (centres undefined)
Reply: 14.53

Task item: Give the value of Percent Effect reported for the following: COc1ccccc1CC(=O)NC(CC(=O)O)c1ccc(C)cc1 (centres undefined)
Reply: -0.7929

Task item: Give the value of Percent Effect reported for the following: `O=C(NCCCn1nc2ccccn2c1=O)NCCC1CCC1`
Reply: 27.05

Task item: Give the value of Percent Effect reported for the following: `Cn1nccc1C(=O)N1CCC(c2nnsc2S(C)(=O)=O)CC1`
Reply: 17.02

Task item: Give the value of Percent Effect reported for the following: CCOc1ccc(Cl)cc1C(C(=O)O)N1CCOCC1 (centres undefined)
Reply: 26.6

Task item: Give the value of Percent Effect reported for the following: `O=C(c1ccc(NCc2ccco2)nc1)N1CCc2ccccc21`
Reply: -1.41

Task item: Give the value of Percent Effect reported for the following: `Cn1nc(C2CC2)cc1C(=O)N1CCC(c2nnsc2S(C)(=O)=O)CC1`
Reply: 16.49

Task item: Give the value of Percent Effect reported for the following: `Cc1ccc(CN2CCn3c(CNS(C)(=O)=O)nnc3C2)s1`
Reply: 21.51

Task item: Give the value of Percent Effect reported for the following: `O=c1cc(-c2ccccc2)nc2n1CCCCC2`
Reply: -39.42

Task item: Give the value of Percent Effect reported for the following: `Cn1nc(C(=O)N2CCOCC2)c2c1CN(CC1CCC1)C2`
Reply: 23.43

Task item: Give the value of Percent Effect reported for the following: O=C(c1ccccc1)N1CC2(CCNC2)OCc2ccccc21 (centres undefined)
Reply: 23.45

Task item: Give the value of Percent Effect reported for the following: O=C1CC(c2ccsc2)c2snc(C(=O)O)c2N1 (centres undefined)
Reply: 9.625

Task item: Give the value of Percent Effect reported for the following: Cc1cc(C(=O)N2CCCC2c2noc(C)n2)[nH]n1 (centres undefined)
Reply: -9.431

Task item: Give the value of Percent Effect reported for the following: `Cc1noc(C)c1CN(C)C(=O)c1cnc(C2CC2)nc1O`
Reply: 65.78

* * *

System: Leishmania donovani
experiment: Leishmania intramacrophage assay
Assay type: functional, organism-based
Parameters: scale not given: in the data most compounds retested in dose-response had high values
measurement_conditions: 30 µM; 30.03 µM
The campaign covered roughly 69,000 compounds. About 1,000 (1.4%) showed an effect of 50% or more. This is one part of a sample in which strong results are shown more often than they occur.
reported_metric: Percent Effect
Write the numeric value and append its unit.

compound	Percent Effect
COc1ccc(C2CCCN2C(=O)c2csc(NC(C)=O)n2)cc1 (configuration not stated)	22.16%
CSCC(=O)N1C[C@H]2CC[C@@H]1CN(Cc1ccccc1)C2	50.94%
CC(=O)Nc1nc(C(=O)NCc2ccc(N3CCCCCC3)nc2)cs1	27.71%
CCOC1COC2(CCN(S(=O)(=O)c3cccc(F)c3)CC2)C1 (configuration not stated)	-15.08%
CCn1cc(N2Cc3nc(N4CCOCC4)ncc3C2=O)cn1	-6.754%
Cc1cnn(CC2CN(c3ncnc4ccccc34)CCO2)c1 (configuration not stated)	53.49%
Fc1ccc2[nH]c(C3CCCN3CCc3ccccn3)nc2c1 (configuration not stated)	50.9%
O=C(NCCOc1ccc2c(c1)OCO2)C1CC(=O)N(CC2CC2)C1 (configuration not stated)	11.04%
Cc1ccc(CNC2CCN(CCc3ccncc3)CC2)cc1C	92.66%
CCN1CCN(Cc2ccnc(-c3cccnc3)n2)CC1.O=C(O)CC(O)(CC(=O)O)C(=O)O	7.725%

Task item: Give the value of Percent Effect reported for the following: CCn1cc2c(n1)C(COC)CN(C(=O)COc1ccccc1C)C2 (configuration not stated)
Reply: -0.4533%

Task item: Give the value of Percent Effect reported for the following: Cc1ccc(CN2CCCC3(CCN(S(C)(=O)=O)C3)C2)o1.O=C(O)C(F)(F)F (configuration not stated)
Reply: 4.141%

Task item: Give the value of Percent Effect reported for the following: `COCCN(C)Cc1ccc(OC)c(OC(F)F)c1`
Reply: 7.354%

Task item: Give the value of Percent Effect reported for the following: `Cc1cc(C(=O)N2C[C@@H]3[C@@H](C2)OCC(=O)N3CC2CC2)no1`
Reply: 18.33%

Task item: Give the value of Percent Effect reported for the following: `Cc1ccc(CNC2CCN(CCc3ccncc3)CC2)s1`
Reply: 45.1%

Task item: Give the value of Percent Effect reported for the following: `CCC1=N[C@@]2(CC[C@@H]3CN(CC4CC4)C[C@@H]32)C(=O)N1C.O=C(O)C(F)(F)F`
Reply: 21.68%

Task item: Give the value of Percent Effect reported for the following: `CC(C)CC(=O)N1C[C@@H]2CCN(c3ncccn3)C[C@@H]2C1.O=C(O)C(F)(F)F`
Reply: 12.14%

Task item: Give the value of Percent Effect reported for the following: Cc1cnn(CC2CN(c3ncnc4ccsc34)CCO2)c1 (configuration not stated)
Reply: 66.34%

Task item: Give the value of Percent Effect reported for the following: COc1ccc2cc(C(=O)N3CCCCC3CC(N)=O)[nH]c2c1 (configuration not stated)
Reply: 4.026%

* * *

Test system: Leishmania donovani
experiment: Leishmania intramacrophage assay
Assay type: functional, organism-based
Set-up: scale not given: in the data most compounds retested in dose-response had high values
measurement_conditions: 30.3 µM; […]
In all, about 69,000 compounds went through this assay and about 1,000 (1.4%) showed an effect of 50% or more. The sample holds strong results, similar compounds and a random draw of the others, so the mix is not that of the screen.
reported_metric: Percent Effect
Write the numeric value and append its unit.

compound	reported_value
CS(=O)(=O)N1CCO[C@@H]2CN(C(=O)N3CCOCC3)CC[C@@H]2C1	41.23%
Cc1nc(CN2CCN(c3ccc(Cl)cn3)CC2)no1	51.54%
CC(C)CCNC(=O)c1ccc(Cl)c(NS(C)(=O)=O)c1	6.444%
Clc1ccc(N2CCN(CCCN3CCCCC3)CC2)nc1	68.75%
N#Cc1ccc(CN2C(=O)c3ccccc3CS2(=O)=O)cc1	-16.87%
COc1cc(CNCc2ccco2)ccc1OCCO.Cl	36%
Cc1cc(Nc2cnccn2)cc(C2CCCNC2)n1 (stereo unspecified)	-25.49%
CC(NC1CCN(CC(=O)N(C)C)CC1)c1cnn(C(C)C)c1 (stereo unspecified)	-44.29%

Task item: Give the value of Percent Effect reported for the following: CNC(=O)N1CCCCC1CCNS(C)(=O)=O (stereo unspecified)
Reply: 6.391%

Task item: Give the value of Percent Effect reported for the following: Cc1cnc(C)c(N2CCCC(CO)(Cc3ccccc3C)C2)n1 (stereo unspecified)
Reply: 58.45%

Task item: Give the value of Percent Effect reported for the following: Cc1cc(Nc2cnccn2)cc(C2CCCN2)n1 (stereo unspecified)
Reply: 50.63%

Task item: Give the value of Percent Effect reported for the following: `Cc1nc(CNc2ccccc2CCC(F)(F)F)cs1`
Reply: 6.456%

Task item: Give the value of Percent Effect reported for the following: `O=C(COCc1nc(-c2ccncc2)no1)N1CCCCC1`
Reply: -11.93%
